Origin of values: ChEMBL document CHEMBL3044896

Tested on: Escherichia coli
EXPERIMENT_DESCRIPTION: Antibacterial activity against Escherichia coli ATCC 2343 at 100 ug/ml after 18 to 24 hr by agar well diffusion method
Type: functional
RUN_CONDITIONS: read-out: IZ
Collected zone of inhibition at 100 µg/mL values appear next to each entry.
Please give a number only; it is taken to be in mm.

Below are worked cases with known answers.
INSERT INTO assay_data (smiles, tested_on, experimental_result) VALUES
  ('COc1ccc(/C=C(\C#N)Cn2nnn(-c3ccc(C(F)(F)F)cc3)c2=O)cc1', 'Escherichia coli', 5),
  ('COC(=O)/C(=C/c1ccc([N+](=O)[O-])cc1)Cn1nnn(-c2ccc(OC)cc2)c1=O', 'Escherichia coli', 6),
  ('CCOC(=O)/C(=C/c1ccc(Cl)cc1)Cn1nnn(-c2ccccc2)c1=O', 'Escherichia coli', 19),
  ('CCOC(=O)/C(=C/c1ccc(Cl)cc1)Cn1nnn(-c2ccc(C(F)(F)F)cc2)c1=O', 'Escherichia coli', 9);

Look up zone of inhibition at 100 µg/mL: "Cc1ccc(/C=C(\C#N)Cn2nnn(-c3ccccc3)c2=O)cc1"
8

"COc1ccc(-n2nnn(C/C(C#N)=C/c3ccc(C)cc3)c2=O)cc1" , same question.
14

Could you do the same for "COc1ccc(-n2nnn(C/C(C#N)=C/c3ccccc3)c2=O)cc1" , please?
7

Also check "COC(=O)/C(=C/c1ccc([N+](=O)[O-])cc1)Cn1nnn(-c2ccc(C(F)(F)F)cc2)c1=O"
6

Okay, and "N#C/C(=C\c1ccc(Cl)cc1)Cn1nnn(-c2ccc(C(F)(F)F)cc2)c1=O" ?
7
